Numbers sourced from the supplement of paper PMC7877785.

# Procedure Summary: self-splicing fitness, log relative to wild type (ln ratio); higher = more splicing; Tetrahymena group I intron in knt gene, E. coli kanamycin selection, DiMSum; sequences stand for … in CUCUCU…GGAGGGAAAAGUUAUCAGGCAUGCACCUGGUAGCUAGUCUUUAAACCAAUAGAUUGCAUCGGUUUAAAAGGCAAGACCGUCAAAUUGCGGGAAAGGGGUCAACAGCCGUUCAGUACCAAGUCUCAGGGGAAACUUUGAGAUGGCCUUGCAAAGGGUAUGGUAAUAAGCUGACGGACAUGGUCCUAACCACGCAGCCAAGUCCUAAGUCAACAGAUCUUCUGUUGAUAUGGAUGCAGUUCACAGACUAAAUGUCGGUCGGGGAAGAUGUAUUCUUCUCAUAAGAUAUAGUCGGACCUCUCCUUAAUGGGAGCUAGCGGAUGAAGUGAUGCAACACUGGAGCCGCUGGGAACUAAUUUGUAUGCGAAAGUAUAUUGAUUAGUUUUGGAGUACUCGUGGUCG;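 also: selection with 25 µg/mL kanamycin versus none on LB agar overnight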
# Stated Conditions: 30 °C
Measured Endpoint: self-splicing fitness (ln)
Number only, please.

Entry AGACAGCAAUAUUACGGUAU needs its self-splicing fitness (ln) filled in; supply it.
-2.55

Write down self-splicing fitness (ln) measured for item ACCUAGCAAUAUUACGCUCA
-1.71

// fetch self-splicing fitness (ln) given entry UACAAGCAAUAUUACGUGUA
-3.33

Please give the documented self-splicing fitness (ln) of GAGAAGCAAUAUUACGAGAC
-2.38

Using the record for CUCGAGCAAUAUUACGCUAU , state its measured self-splicing fitness (ln).
-2.92

Please look at this sequence and report its self-splicing fitness (ln): UAGCAGCAAUAUUACGCACC
-0.936

Please look at this sequence and report its self-splicing fitness (ln): AGCGAGCAAUAUUACGGAUA
-2.18

Read off the recorded self-splicing fitness (ln) for CACUAGCAAUAUUACGGGGG
-2.43

Give recorded self-splicing fitness (ln). GUCUAGCAAUAUUACGGUUC
-0.596

Annotate the sequence AUCCAGCAAUAUUACGUGAU with its measured self-splicing fitness (ln).
-2.15

Given CCAAAGCAAUAUUACGGGUG , respond with its self-splicing fitness (ln).
-1.01

Output self-splicing fitness (ln) of UAGAAGCAAUAUUACGGGGU
-3.13

Please supply the value of reported self-splicing fitness (ln) for the item AACAAGCAAUAUUACGUCUU
-0.312

State its self-splicing fitness (ln): AUGGAGCAAUAUUACGCCAC
-2.95

Name the recorded self-splicing fitness (ln) of the item AACCAGCAAUAUUACGGUUU in your answer.
-3.26

Quote self-splicing fitness (ln) reported for CACGAGCAAUAUUACGGCAG please.
-1.03

Indicate its recorded self-splicing fitness (ln); the sequence in question is GGAAAGCAAUAUUACGAUGA
-1.68

###

self-splicing fitness (ln) overview
# Procedure Summary: self-splicing fitness, log relative to wild type (ln ratio); higher = more splicing; Tetrahymena group I intron in knt gene, E. coli kanamycin selection, DiMSum; sequences stand for … in CUCUCU…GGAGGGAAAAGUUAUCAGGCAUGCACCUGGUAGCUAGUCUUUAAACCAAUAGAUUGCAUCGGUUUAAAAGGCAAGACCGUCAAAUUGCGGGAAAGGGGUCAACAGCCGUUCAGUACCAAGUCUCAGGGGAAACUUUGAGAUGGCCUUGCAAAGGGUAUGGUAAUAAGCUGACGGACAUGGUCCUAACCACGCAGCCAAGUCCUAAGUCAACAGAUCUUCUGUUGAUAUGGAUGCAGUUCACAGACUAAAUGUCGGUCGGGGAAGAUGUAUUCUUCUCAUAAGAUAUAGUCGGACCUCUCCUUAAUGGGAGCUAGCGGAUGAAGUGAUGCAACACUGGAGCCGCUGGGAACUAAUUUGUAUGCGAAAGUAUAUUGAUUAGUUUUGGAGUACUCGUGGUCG
# Stated Conditions: 37 °C
// print number alone

Residue Sequence: CACUAGCAAUAUUACGUUCU
self-splicing fitness (ln): -1.39

Fill in self-splicing fitness (ln) for record CGGCAGCAAUAUUACGCGCA
-0.247

Name the recorded self-splicing fitness (ln) of the sequence listed here: UAGCAGCAAUAUUACGAUAA
0.133

Consider the sequence AUAUAGCAAUAUUACGGGAU . State its measured self-splicing fitness (ln).
-0.966

Recall and state the measured self-splicing fitness (ln) for UGUGAGCAAUAUUACGUAUC .
-2.3

Write down self-splicing fitness (ln) measured for item CCCCAGCAAUAUUACGUAUG
-1.96

For the sequence UGCAAGCAAUAUUACGUCAG , report self-splicing fitness (ln).
-0.64
